Test system: PMA-differentiated U937 cells
Test: MTT Assay (cell viability)
Type: cell-based, Human
Settings: percentage loss of cell viability; 4 hr in 5% FCS
READOUT_NAME: Cell Viability MTT Assay in D-U937 cells at 4 hr

smiles_text=CC(C)NC(=O)CCCC#Cc1cccc2nc(Cn3nc(-c4cccc(O)c4)c4c(N)ncnc43)n(Cc3ccccc3Cl)c(=O)c12 tgt="PMA-differentiated U937 cells" value_observed="− (− <30%)"
smiles_text=C#Cc1cccc2nc(Cn3nc(-c4cccc(O)c4)c4c(N)ncnc43)n(Cc3cccc(C(F)(F)F)c3)c(=O)c12 tgt="PMA-differentiated U937 cells" value_observed="− (− <30%)"
smiles_text=Nc1ncnc2c1c(-c1cccc(O)c1)nn2Cc1nc2cccc(C#CCCCC(=O)N3CCC(N4CCOCC4)CC3)c2c(=O)n1Cc1ccccc1Cl tgt="PMA-differentiated U937 cells" value_observed="− (− <30%)"

----------
Tested on: PMA-differentiated U937 cells
Test: MTT Assay (cell viability)
Format: cell-based, Human
Conditions: percentage loss of cell viability; 24 hr in 10% FCS
READOUT_NAME: Cell Viability MTT Assay in D-U937 cells at 24 hr

compound="CN1CCCN(C(=O)CCCC#Cc2cccc3nc(Cn4nc(-c5cccc(O)c5)c5c(N)ncnc54)n(Cc4ccccc4Cl)c(=O)c23)CC1 [Example 94]" value_observed="− (− <30%)"
compound="C#Cc1cccc2nc(Cn3nc(-c4ccc(O)c(F)c4)c4c(N)ncnc43)n(Cc3ccccc3Cl)c(=O)c12 [Example 36]" value_observed="− (− <30%)"
compound="CN1CCN(C(=O)CCCC#Cc2cccc3nc(Cn4nc(-c5cccc(O)c5)c5c(N)ncnc54)n(Cc4ccccc4Cl)c(=O)c23)CC1 [Example 69]" value_observed="− (− <30%)"

----------
Overview of recorded pIC50 for various molecules
Target: recombinant PI3 kinase δ (Homo sapiens (Human))
Sequence (O00329 whole entry, one chain of several): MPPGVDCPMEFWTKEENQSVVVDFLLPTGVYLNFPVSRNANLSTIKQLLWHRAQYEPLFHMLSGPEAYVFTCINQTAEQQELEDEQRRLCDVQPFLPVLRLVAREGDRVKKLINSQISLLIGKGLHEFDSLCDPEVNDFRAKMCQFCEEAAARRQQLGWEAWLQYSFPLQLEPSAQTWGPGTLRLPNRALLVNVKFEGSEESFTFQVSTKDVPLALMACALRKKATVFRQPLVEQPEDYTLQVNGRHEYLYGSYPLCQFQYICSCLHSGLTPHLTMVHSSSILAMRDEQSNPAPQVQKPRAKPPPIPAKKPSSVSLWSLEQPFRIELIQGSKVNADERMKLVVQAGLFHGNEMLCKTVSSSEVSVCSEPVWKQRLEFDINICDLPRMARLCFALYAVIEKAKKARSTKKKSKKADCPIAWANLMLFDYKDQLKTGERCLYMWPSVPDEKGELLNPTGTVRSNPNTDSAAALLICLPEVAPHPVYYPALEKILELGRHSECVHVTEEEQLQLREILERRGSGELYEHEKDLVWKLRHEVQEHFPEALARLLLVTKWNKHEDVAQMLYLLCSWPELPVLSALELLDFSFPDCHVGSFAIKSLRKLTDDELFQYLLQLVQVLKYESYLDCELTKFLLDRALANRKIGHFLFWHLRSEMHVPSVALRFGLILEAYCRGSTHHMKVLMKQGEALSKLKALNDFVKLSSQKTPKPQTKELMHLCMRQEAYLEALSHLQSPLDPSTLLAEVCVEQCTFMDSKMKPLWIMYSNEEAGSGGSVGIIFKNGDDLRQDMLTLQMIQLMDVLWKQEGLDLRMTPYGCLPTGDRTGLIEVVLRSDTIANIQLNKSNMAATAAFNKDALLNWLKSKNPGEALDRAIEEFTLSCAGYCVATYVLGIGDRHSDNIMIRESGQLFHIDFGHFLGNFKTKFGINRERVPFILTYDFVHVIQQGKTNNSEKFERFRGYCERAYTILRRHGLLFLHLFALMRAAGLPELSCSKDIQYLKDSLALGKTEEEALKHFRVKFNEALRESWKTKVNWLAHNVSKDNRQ
Assay: Enzyme Inhibition Assay (HTRF PI3K enzyme assay, TR-FRET)
Assay type: biochemical
Settings: activity range; read-out: PI3 Kinase Inhibition IC50 values at stated Isozyme δ
Excerpt: PI3 kinases catalyse the phosphorylation of phosphatidylinositol 4,5-biphosphate (PIP2) to phosphatidylinositol 3,4,5-triphosphate (PIP3) in the presence of ATP and Mg^2+ ions. […]
pIC50: −log10 of the molar value.
READOUT_NAME: pIC50

molecule=C#Cc1cccc2nc(Cn3nc(-c4ccc(O)cc4)c4c(N)ncnc43)n(Cc3ccccc3F)c(=O)c12 tgt="recombinant PI3 kinase δ (Homo sapiens (Human))" readout_name=pIC50 value_observed="> 7.30"
molecule=Nc1ncnc2c1c(-c1cccc(O)c1)nn2Cc1nc2cccc(C#CCCC(=O)N3CCOCC3)c2c(=O)n1Cc1ccccc1Cl tgt="recombinant PI3 kinase δ (Homo sapiens (Human))" readout_name=pIC50 value_observed="> 7.30"
molecule=C#Cc1cccc2nc(Cn3nc(-c4ccc(O)cc4)c4c(N)ncnc43)n(Cc3ccc(F)cc3)c(=O)c12 tgt="recombinant PI3 kinase δ (Homo sapiens (Human))" readout_name=pIC50 value_observed="> 7.30"
molecule=CN1CCN(CCN(C)C(=O)CCCC#Cc2cccc3nc(Cn4nc(-c5ccc(O)cc5)c5c(N)ncnc54)n(Cc4ccccc4Cl)c(=O)c23)CC1 tgt="recombinant PI3 kinase δ (Homo sapiens (Human))" readout_name=pIC50 value_observed="> 7.30"
molecule=C#Cc1cccc2nc(Cn3nc(-c4ccc(O)cc4)c4c(N)ncnc43)n(Cc3ccc(C(F)(F)F)cc3)c(=O)c12 tgt="recombinant PI3 kinase δ (Homo sapiens (Human))" readout_name=pIC50 value_observed="> 7.30"
molecule=C#Cc1cccc2nc(Cn3nc(-c4cccc(O)c4)c4c(N)ncnc43)n(Cc3ccccc3Cl)c(=O)c12 tgt="recombinant PI3 kinase δ (Homo sapiens (Human))" readout_name=pIC50 value_observed="> 7.30"
molecule=C#Cc1cccc2nc(Cn3nc(-c4ccc(O)cc4)c4c(N)ncnc43)n(Cc3cc(OC)ccc3F)c(=O)c12 tgt="recombinant PI3 kinase δ (Homo sapiens (Human))" readout_name=pIC50 value_observed="> 7.30"
molecule=COCC#Cc1cccc2nc(Cn3nc(-c4ccc(O)cc4)c4c(N)ncnc43)n(Cc3cccc(OC)c3)c(=O)c12 tgt="recombinant PI3 kinase δ (Homo sapiens (Human))" readout_name=pIC50 value_observed="> 7.30"
molecule=COCC#Cc1cccc2nc(Cn3nc(-c4ccc(O)cc4)c4c(N)ncnc43)n(Cc3ccccc3Cl)c(=O)c12 tgt="recombinant PI3 kinase δ (Homo sapiens (Human))" readout_name=pIC50 value_observed="> 7.30"
molecule=COCCNC(=O)CCCC#Cc1cccc2nc(Cn3nc(-c4cccc(O)c4)c4c(N)ncnc43)n(Cc3ccccc3Cl)c(=O)c12 tgt="recombinant PI3 kinase δ (Homo sapiens (Human))" readout_name=pIC50 value_observed="> 7.30"
molecule=CC(C)NC(=O)CCCC#Cc1cccc2nc(Cn3nc(-c4cccc(O)c4)c4c(N)ncnc43)n(Cc3ccccc3Cl)c(=O)c12 tgt="recombinant PI3 kinase δ (Homo sapiens (Human))" readout_name=pIC50 value_observed="> 7.30"
molecule=C#Cc1cccc2nc(Cn3nc(-c4ccc(O)c(F)c4)c4c(N)ncnc43)n(Cc3ccccc3Cl)c(=O)c12 tgt="recombinant PI3 kinase δ (Homo sapiens (Human))" readout_name=pIC50 value_observed="> 7.30"
molecule=COc1cc(Cn2c(Cn3nc(-c4ccc(O)cc4)c4c(N)ncnc43)nc3cccc(C#CCCCC(=O)N4CCOCC4)c3c2=O)cc(C(F)(F)F)c1 tgt="recombinant PI3 kinase δ (Homo sapiens (Human))" readout_name=pIC50 value_observed="> 7.30"
molecule=Nc1ncnc2c1c(-c1ccc(O)cc1)nn2Cc1nc2cccc(C#CCCCC(=O)N3CCCCC3)c2c(=O)n1Cc1ccccc1Cl tgt="recombinant PI3 kinase δ (Homo sapiens (Human))" readout_name=pIC50 value_observed="> 7.30"
molecule=Nc1ncnc2c1c(-c1cccc(O)c1)nn2Cc1nc2cccc(C#CCOCCN3CCOCC3)c2c(=O)n1Cc1ccccc1Cl tgt="recombinant PI3 kinase δ (Homo sapiens (Human))" readout_name=pIC50 value_observed="> 7.30"
molecule=NC(=O)NCC#Cc1cccc2nc(Cn3nc(-c4ccc(O)cc4)c4c(N)ncnc43)n(Cc3ccccc3Cl)c(=O)c12 tgt="recombinant PI3 kinase δ (Homo sapiens (Human))" readout_name=pIC50 value_observed="> 7.30"
molecule=Nc1ncnc2c1c(-c1cccc(O)c1)nn2Cc1nc2cccc(C#CCCCC(=O)Nc3ccncc3)c2c(=O)n1Cc1ccccc1Cl tgt="recombinant PI3 kinase δ (Homo sapiens (Human))" readout_name=pIC50 value_observed="> 7.30"
molecule=COCCN1CCN(C(=O)CCCC#Cc2cccc3nc(Cn4nc(-c5ccc(O)cc5)c5c(N)ncnc54)n(Cc4ccccc4Cl)c(=O)c23)CC1 tgt="recombinant PI3 kinase δ (Homo sapiens (Human))" readout_name=pIC50 value_observed="> 7.30"
molecule=Nc1ncnc2c1c(-c1ccc(O)cc1)nn2Cc1nc2cccc(C#CCCCC(=O)N3CCOCC3)c2c(=O)n1Cc1ccccc1F tgt="recombinant PI3 kinase δ (Homo sapiens (Human))" readout_name=pIC50 value_observed="> 7.30"
molecule=C#Cc1cccc2nc(Cn3nc(-c4cccc(O)c4)c4c(N)ncnc43)n(Cc3ccc(C(F)(F)F)cc3)c(=O)c12 tgt="recombinant PI3 kinase δ (Homo sapiens (Human))" readout_name=pIC50 value_observed="> 7.30"
molecule=COCCN(CCOC)C(=O)CCCC#Cc1cccc2nc(Cn3nc(-c4ccc(O)cc4)c4c(N)ncnc43)n(Cc3ccccc3Cl)c(=O)c12 tgt="recombinant PI3 kinase δ (Homo sapiens (Human))" readout_name=pIC50 value_observed="> 7.30"
molecule=C#Cc1cccc2nc(Cn3nc(-c4cccc(O)c4)c4c(N)ncnc43)n(Cc3cccc(OC)c3)c(=O)c12 tgt="recombinant PI3 kinase δ (Homo sapiens (Human))" readout_name=pIC50 value_observed="> 7.30"
molecule=Nc1ncnc2c1c(-c1cccc(O)c1)nn2Cc1nc2cccc(C#CCCCC(=O)N3CCOCC3)c2c(=O)n1Cc1ccccc1Cl tgt="recombinant PI3 kinase δ (Homo sapiens (Human))" readout_name=pIC50 value_observed="> 7.30"
molecule=COc1cc(-c2nn(Cc3nc4cccc(C#CCCCC(=O)N5CCOCC5)c4c(=O)n3Cc3ccccc3Cl)c3ncnc(N)c23)ccc1O tgt="recombinant PI3 kinase δ (Homo sapiens (Human))" readout_name=pIC50 value_observed="> 7.30"
molecule="CN(C)C1CCN(C(=O)CCCC#Cc2cccc3nc(Cn4nc(-c5cccc(O)c5)c5c(N)ncnc54)n(Cc4ccccc4Cl)c(=O)c23)C1 (centres unmarked)" tgt="recombinant PI3 kinase δ (Homo sapiens (Human))" readout_name=pIC50 value_observed="> 7.30"
molecule=CN(C)C1CCN(C(=O)CCCC#Cc2cccc3nc(Cn4nc(-c5ccc(O)cc5)c5c(N)ncnc54)n(Cc4ccccc4Cl)c(=O)c23)CC1 tgt="recombinant PI3 kinase δ (Homo sapiens (Human))" readout_name=pIC50 value_observed="> 7.30"

----------
Target: recombinant PI3 kinase α (Homo sapiens (Human))
Sequence (P42336 whole entry): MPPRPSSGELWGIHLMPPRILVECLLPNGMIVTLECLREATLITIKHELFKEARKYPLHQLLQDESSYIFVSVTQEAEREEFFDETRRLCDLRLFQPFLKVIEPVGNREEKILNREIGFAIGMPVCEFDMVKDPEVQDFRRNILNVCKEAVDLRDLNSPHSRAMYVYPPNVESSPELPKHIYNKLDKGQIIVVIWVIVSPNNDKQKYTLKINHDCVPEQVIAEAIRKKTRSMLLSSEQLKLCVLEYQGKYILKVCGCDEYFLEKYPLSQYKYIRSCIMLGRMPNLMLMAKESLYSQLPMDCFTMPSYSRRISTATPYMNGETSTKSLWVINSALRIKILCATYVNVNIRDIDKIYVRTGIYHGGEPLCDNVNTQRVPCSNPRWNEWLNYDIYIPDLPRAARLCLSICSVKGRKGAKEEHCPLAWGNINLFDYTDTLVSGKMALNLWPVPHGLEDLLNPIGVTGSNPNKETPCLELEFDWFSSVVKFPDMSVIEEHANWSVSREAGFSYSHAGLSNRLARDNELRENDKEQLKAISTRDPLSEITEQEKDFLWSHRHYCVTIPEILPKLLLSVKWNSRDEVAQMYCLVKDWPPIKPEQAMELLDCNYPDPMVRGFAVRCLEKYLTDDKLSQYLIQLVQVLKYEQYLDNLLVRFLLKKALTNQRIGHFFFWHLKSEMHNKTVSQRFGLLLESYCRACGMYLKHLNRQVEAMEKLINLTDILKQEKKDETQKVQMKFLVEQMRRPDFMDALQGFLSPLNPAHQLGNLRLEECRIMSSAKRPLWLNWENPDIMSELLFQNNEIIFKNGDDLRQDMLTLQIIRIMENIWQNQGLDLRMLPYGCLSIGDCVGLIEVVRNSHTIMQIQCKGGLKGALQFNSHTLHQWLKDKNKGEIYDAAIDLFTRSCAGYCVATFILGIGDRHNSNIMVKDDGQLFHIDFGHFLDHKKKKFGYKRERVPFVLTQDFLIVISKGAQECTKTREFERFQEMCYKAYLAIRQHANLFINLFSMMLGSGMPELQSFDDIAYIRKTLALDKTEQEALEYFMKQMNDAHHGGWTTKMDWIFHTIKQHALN
Sequence (P27986 whole entry partner): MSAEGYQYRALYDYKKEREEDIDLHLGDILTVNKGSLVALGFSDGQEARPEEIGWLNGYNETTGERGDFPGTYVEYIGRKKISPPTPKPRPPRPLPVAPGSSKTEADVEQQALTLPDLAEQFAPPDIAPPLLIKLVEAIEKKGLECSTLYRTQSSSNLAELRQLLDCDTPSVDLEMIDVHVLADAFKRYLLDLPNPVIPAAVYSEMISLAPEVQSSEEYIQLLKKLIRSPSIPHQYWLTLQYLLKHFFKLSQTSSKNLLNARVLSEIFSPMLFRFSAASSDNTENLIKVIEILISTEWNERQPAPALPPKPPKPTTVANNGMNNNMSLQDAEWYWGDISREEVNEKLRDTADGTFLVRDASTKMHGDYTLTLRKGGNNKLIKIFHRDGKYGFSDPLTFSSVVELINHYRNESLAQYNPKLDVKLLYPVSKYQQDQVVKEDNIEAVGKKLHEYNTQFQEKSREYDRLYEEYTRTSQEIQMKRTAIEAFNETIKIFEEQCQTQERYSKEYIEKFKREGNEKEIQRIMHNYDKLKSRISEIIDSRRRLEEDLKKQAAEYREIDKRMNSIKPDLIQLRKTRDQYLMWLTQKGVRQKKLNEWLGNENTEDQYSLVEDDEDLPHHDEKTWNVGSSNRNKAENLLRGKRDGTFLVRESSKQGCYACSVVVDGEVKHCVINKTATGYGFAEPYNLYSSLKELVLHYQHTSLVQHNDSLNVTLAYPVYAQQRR
Assay: Enzyme Inhibition Assay (HTRF PI3K enzyme assay, TR-FRET)
Assay type: biochemical
Settings: activity range; read-out: PI3 Kinase Inhibition IC50 values at stated Isozyme α
pIC50: −log10 of the molar value.
Overview of recorded pIC50 for various compounds
READOUT_NAME: pIC50

smiles_text=C#Cc1cccc2nc(Cn3nc(-c4ccc(O)cc4)c4c(N)ncnc43)n(Cc3ccccc3C(F)(F)F)c(=O)c12 value_observed="6.00 to 7.30"
smiles_text=CC(=O)N1CCN(C(=O)CCCC#Cc2cccc3nc(Cn4nc(-c5ccc(O)cc5)c5c(N)ncnc54)n(Cc4ccccc4Cl)c(=O)c23)CC1 value_observed="6.00 to 7.30"
smiles_text=C#Cc1cccc2nc(Cn3nc(-c4ccc(O)cc4)c4c(N)ncnc43)n(Cc3cccc(OC)c3)c(=O)c12 value_observed="6.00 to 7.30"
smiles_text=CN(C)C(=O)CCCC#Cc1cccc2nc(Cn3nc(-c4ccc(O)cc4)c4c(N)ncnc43)n(Cc3ccccc3Cl)c(=O)c12 value_observed="6.00 to 7.30"
smiles_text=Nc1ncnc2c1c(-c1cccc(O)c1)nn2Cc1nc2cccc(C#CCCC(=O)N3CCOCC3)c2c(=O)n1Cc1ccccc1Cl value_observed="> 7.30"
smiles_text=COCCN1CCN(C(=O)CCCC#Cc2cccc3nc(Cn4nc(-c5ccc(O)cc5)c5c(N)ncnc54)n(Cc4ccccc4Cl)c(=O)c23)CC1 value_observed="6.00 to 7.30"
